molecular target: fMet-Leu-Phe receptor (Homo sapiens, UniProt P21462); assay: FPR ligands, dose response (AID 519); format: functional
Sequence (P21462 whole entry): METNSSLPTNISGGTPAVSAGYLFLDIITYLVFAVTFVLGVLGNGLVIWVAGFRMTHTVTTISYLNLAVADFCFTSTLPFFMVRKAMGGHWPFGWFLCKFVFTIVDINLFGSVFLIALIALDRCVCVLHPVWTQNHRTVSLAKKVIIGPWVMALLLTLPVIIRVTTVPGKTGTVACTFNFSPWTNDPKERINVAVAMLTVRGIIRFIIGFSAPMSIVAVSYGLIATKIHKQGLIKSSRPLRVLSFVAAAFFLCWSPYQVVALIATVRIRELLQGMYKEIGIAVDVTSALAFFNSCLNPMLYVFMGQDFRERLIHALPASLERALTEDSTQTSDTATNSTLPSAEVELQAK
Activity calls are given as the source filed them.

compound: COc1ccc(C2C(C(=O)c3cccs3)=C(O)C(=O)N2c2nnc(C)s2)cc1OC (stereo not drawn)
Ki: > 66.7 µM (inactive)
//
compound: Cc1ccc(NC(=O)C2C(=O)N(CCO)C3(C)CC2c2ccccc2O3)cc1 (stereo not drawn)
Ki: > 66.7 µM (inactive)
//
compound: CCCOc1ccc(C2C(C(=O)c3ccc(C)o3)=C(O)C(=O)N2Cc2cccnc2)cc1 (stereo not drawn)
Ki: 42.7 µM (inactive)

* * *

test: Luminescence Cell-Based Dose Response HTS to Identify Inhibitors of 5'UTR Stem-Loop Driven Prion Protein mRNA Translation in H4 Neuroglioblastoma Cells. [Related pubchem assays: 1827 (Project Summary), 1813 (Primary HTS)]; assay type: functional
The source made the active and inactive calls.
assay.endpoint: EC50

compound: CC(C)(C)c1ccc(C(O)CCCN2CCC(C(O)(c3ccccc3)c3ccccc3)CC2)cc1 (centres undefined) [TERFENADINE]
value.observed: 6.46 µM (active)

compound: O=C(Cn1cnc2c(cnn2-c2ccc(Cl)cc2)c1=O)N1CCN(c2ccccc2)CC1
value.observed: 12 µM (active)

compound: O=C(/C=C\Nc1ccccn1)c1ccccc1
value.observed: 10.7 µM (inconclusive)

compound: COc1cc(C)c(C(C)C)cc1S(=O)(=O)n1cnc(C)c1
value.observed: > 120 µM (not active)
